# assayText: Toxicity liver stage against HepG2, at 10uM
# Type: cell-based
# Parameters: test concentration 10 uM, cell line HepG2-A16-CD81EGFP
# particulars: human, HepG2-A16-CD81EGFP cells; read-out: INHIBITION
outcomeMeasure: cytotoxicity at 10 µM

In [3]: df
Out[3]:
                                    compound         outcomemeasure   result
 0  Cc1cc2c(=O)n3c(nc2s1)CCN(Cc1cnc(C)n1C)CC3  cytotoxicity at 10 µM   -7.73%
 1  Cn1nccc1C1CCN(CC(O)c2cccc(F)c2)CC1 (stereo not drawn)  cytotoxicity at 10 µM   -11.8%
 2                Cn1ccc(CN2CCOCC23CCNCC3)n1  cytotoxicity at 10 µM    6.77%
 3  CC(C(=O)NCc1ccnc(Oc2ccc(F)cc2)c1)n1cncn1 (stereo not drawn)  cytotoxicity at 10 µM   -3.63%
 4    Cc1nc[nH]c1CN(C)Cc1cnn(-c2ccc(F)cc2)c1  cytotoxicity at 10 µM   0.345%
 5  O=C(c1cnn2cc(CCO)cnc12)N1CCOC(C(F)(F)F)C1 (stereo not drawn)  cytotoxicity at 10 µM    3.24%
 6  COc1ccc(CNCC(C)Oc2ccccn2)cc1 (stereo not drawn)  cytotoxicity at 10 µM    -2.7%
 7    COCCN(Cc1ccc(C)o1)C(=O)Nc1nnc(C(F)F)s1  cytotoxicity at 10 µM    1.24%
 8       CCn1nc(C)cc1C(=O)N1CCOc2ccc(OC)cc21  cytotoxicity at 10 µM    14.3%
 9  CCS(=O)(=O)NCC1Cn2nnc(-c3ccccc3)c2CO1 (stereo not drawn)  cytotoxicity at 10 µM   -75.4%
10  COc1cccc(N2CCN(C(=O)C(O)c3cccc(Cl)c3)CC2=O)c1 (stereo not drawn)  cytotoxicity at 10 µM   -11.2%
11  O=C(c1cnccn1)N1CCCC(Cc2cccc3ncccc23)C1 (stereo not drawn)  cytotoxicity at 10 µM      12%
12  O=C(C1CCCCC1)N1C[C@@H]2CCN(c3cnccn3)C[C@@H]2C1  cytotoxicity at 10 µM    5.68%
13  CC(C)(C)n1ncc(NCC(O)c2ccc(F)c(F)c2)c(Cl)c1=O (stereo not drawn)  cytotoxicity at 10 µM    54.1%
14       CCCc1cc(=O)[nH]c2nnc(SCC(=O)OCC)n12  cytotoxicity at 10 µM    10.8%
15  Cc1cn2c(=O)c(-c3ccnc(N(C)C4CCCCC4)n3)cnc2s1  cytotoxicity at 10 µM    9.49%
16  CC(=O)c1cc(CC(=O)N2CCN(CCOc3ccccc3)CC2)cs1  cytotoxicity at 10 µM   -5.48%
17  CS(=O)(=O)c1ccc(-c2cc(C3CC3)c(C#N)c(N)n2)cc1  cytotoxicity at 10 µM   -8.11%
18  Cc1cnn(CC2CCCCN2C(=O)c2csc(C)n2)c1 (stereo not drawn)  cytotoxicity at 10 µM   -1.16%
19  Cc1nc(C)n(CC2CCCN(CC(=O)NC3CCOCC3)C2)n1 (stereo not drawn)  cytotoxicity at 10 µM   -11.8%
20  CCCC(=O)Nc1cccc(C(=O)N(C)CCCC2CCCO2)c1 (stereo not drawn)  cytotoxicity at 10 µM    1.03%
21       COC[C@]1(O)CCN(c2cc(OC)ncn2)CC1(C)C  cytotoxicity at 10 µM    5.66%
22   Cc1cc(F)cc(S(=O)(=O)Nc2ccn(CCCC#N)n2)c1  cytotoxicity at 10 µM      18%
23  O=C(CCn1cccc1)N1CCc2[nH]nc(COc3ccccc3)c2C1  cytotoxicity at 10 µM    7.54%
24  Cc1nc(CCNC(Cc2ccncc2)C(F)(F)F)cs1 (stereo not drawn)  cytotoxicity at 10 µM   -1.48%
25  CSc1ccccc1C(=O)N1C[C@@H]2CC[C@H]1CN(C(=O)C1CCC1)C2  cytotoxicity at 10 µM   -6.75%
26  O[C@H]1[C@H](n2cc(-c3cccnc3)nn2)c2ccccc2C12CCNCC2  cytotoxicity at 10 µM   -10.5%
27  CN(C)C(=O)COC[C@]12COC[C@H]1CN(C1CCCC1)C2  cytotoxicity at 10 µM    -108%
28  NC(=O)CN1CCN(S(=O)(=O)N2CCCC2c2ccco2)CC1 (stereo not drawn)  cytotoxicity at 10 µM   -3.48%
29  COCCN1CCC2(COCc3cnc(N(C)C)nc32)C1 (stereo not drawn)  cytotoxicity at 10 µM    1.39%
30  COCCc1noc(CN2CC(Cc3ccccc3)CC2=O)n1 (stereo not drawn)  cytotoxicity at 10 µM   -7.11%
31  CCc1nccn1C1CCCN(C(=O)c2csc(NC(C)=O)n2)C1 (stereo not drawn)  cytotoxicity at 10 µM     -13%
32  Cc1noc(C)c1CCC(=O)NCC1(O)CCN(c2ccccn2)C1 (stereo not drawn)  cytotoxicity at 10 µM    2.12%
33         COCCCn1ccc(NCc2cnc(C(C)(C)C)s2)n1  cytotoxicity at 10 µM    5.91%
34  Cc1cc(N)cc(C2CN(Cc3cc[nH]n3)CCO2)n1 (stereo not drawn)  cytotoxicity at 10 µM   -29.1%
35  CCOC(=O)c1cc(C(C)(O)CCC=C(C)C)on1 (stereo not drawn)  cytotoxicity at 10 µM     2.3%
36                   COCc1nc(CNC2CSCCSC2)no1  cytotoxicity at 10 µM    8.33%
37  Cn1cc(CN2CCC(c3cc(COc4ccc(Cl)cc4)[nH]n3)C2)cn1 (stereo not drawn)  cytotoxicity at 10 µM  0.0085%
38      O=C1CN(C(=O)c2cc(Cl)ccc2F)c2ccncc2N1  cytotoxicity at 10 µM    5.92%
39  OC[C@H]1CN(Cc2c(Cl)cccc2Cl)C[C@H]1CN1CCCCC1  cytotoxicity at 10 µM    -140%
40  CC1(Cc2cccnc2)NCCc2[nH]cnc21 (stereo not drawn)  cytotoxicity at 10 µM    12.1%
41  O=S(=O)(N1CCCCC1)N1CCCN(CC2CCCO2)CC1 (stereo not drawn)  cytotoxicity at 10 µM   -3.94%
42             O=C(c1cc(C2CCCC2)no1)N1CCCCC1  cytotoxicity at 10 µM   -3.05%
43  Cc1ccncc1C(=O)N1CC[C@@]2(O)CCN(C3CCCCC3)C[C@H]2C1  cytotoxicity at 10 µM    -125%
44  O=C(C1CCOC1)N1CCC2(CC1)Cc1ccccc1CNC2=O (stereo not drawn)  cytotoxicity at 10 µM    -113%
45  O[C@H]1CN(c2nc(-c3ccccc3)no2)C[C@@H]1N1CCOCC1  cytotoxicity at 10 µM   -20.8%
46  Cc1ccc(CN2C[C@@H]3CC[C@H]2CN(Cc2[nH]cnc2C)C3)o1  cytotoxicity at 10 µM   -6.81%
47  CC(C)CCN1CC2(CCCN(C(=O)c3cscn3)C2)CCC1=O (stereo not drawn)  cytotoxicity at 10 µM   -13.9%
